These data points were gathered from ChEMBL document CHEMBL2424553.

Entries annotated with measured IC50
molecular target: Urease subunit alpha/Urease subunit beta (Helicobacter pylori (strain ATCC 700392 / 26695) (Campylobacterpylori)); assay: Inhibition of urease extracted from Helicobacter pylori ATCC 43504 assessed as ammonia production preincubated for 1.5 hrs by indophenol-based method
Sequence (P69996 whole entry): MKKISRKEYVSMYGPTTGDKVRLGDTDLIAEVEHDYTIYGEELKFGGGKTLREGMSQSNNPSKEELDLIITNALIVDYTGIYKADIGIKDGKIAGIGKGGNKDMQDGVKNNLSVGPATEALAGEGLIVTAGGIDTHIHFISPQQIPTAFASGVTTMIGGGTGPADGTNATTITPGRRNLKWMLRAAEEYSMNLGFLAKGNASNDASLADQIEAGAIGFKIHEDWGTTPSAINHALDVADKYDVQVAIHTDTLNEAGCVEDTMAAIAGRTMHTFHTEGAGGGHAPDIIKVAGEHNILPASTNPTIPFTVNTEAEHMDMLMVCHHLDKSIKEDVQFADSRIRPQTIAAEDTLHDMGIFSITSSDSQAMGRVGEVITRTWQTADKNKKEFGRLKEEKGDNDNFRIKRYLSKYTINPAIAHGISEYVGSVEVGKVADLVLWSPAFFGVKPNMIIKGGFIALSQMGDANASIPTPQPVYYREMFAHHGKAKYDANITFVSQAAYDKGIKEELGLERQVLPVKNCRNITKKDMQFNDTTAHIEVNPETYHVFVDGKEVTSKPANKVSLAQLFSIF
Sequence (P14916 whole entry, further chain): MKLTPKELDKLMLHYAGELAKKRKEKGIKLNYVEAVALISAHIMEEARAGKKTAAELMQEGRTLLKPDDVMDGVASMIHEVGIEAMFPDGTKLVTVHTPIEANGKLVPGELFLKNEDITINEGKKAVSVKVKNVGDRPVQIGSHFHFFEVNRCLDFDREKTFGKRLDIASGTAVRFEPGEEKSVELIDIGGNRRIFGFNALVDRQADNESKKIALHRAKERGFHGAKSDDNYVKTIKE
All answers are understood in µM, so give the number only.

Query: // lookup IC50 for COc1cccc(C(O)CC(=O)NO)c1 (racemic)
Response: 23.2

Query: // lookup IC50 for O=C(CC(O)c1ccc(C(F)(F)F)cc1)NO (racemic)
Response: 7.89

Query: // lookup IC50 for O=C(CC(O)c1cccc(C(F)(F)F)c1)NO (racemic)
Response: 1.22
